The measured values listed here are drawn from patent US20060063766A1.

# STUDY SYSTEM: SERT (Homo sapiens, UniProt P31645)
# Sequence (P31645 whole entry): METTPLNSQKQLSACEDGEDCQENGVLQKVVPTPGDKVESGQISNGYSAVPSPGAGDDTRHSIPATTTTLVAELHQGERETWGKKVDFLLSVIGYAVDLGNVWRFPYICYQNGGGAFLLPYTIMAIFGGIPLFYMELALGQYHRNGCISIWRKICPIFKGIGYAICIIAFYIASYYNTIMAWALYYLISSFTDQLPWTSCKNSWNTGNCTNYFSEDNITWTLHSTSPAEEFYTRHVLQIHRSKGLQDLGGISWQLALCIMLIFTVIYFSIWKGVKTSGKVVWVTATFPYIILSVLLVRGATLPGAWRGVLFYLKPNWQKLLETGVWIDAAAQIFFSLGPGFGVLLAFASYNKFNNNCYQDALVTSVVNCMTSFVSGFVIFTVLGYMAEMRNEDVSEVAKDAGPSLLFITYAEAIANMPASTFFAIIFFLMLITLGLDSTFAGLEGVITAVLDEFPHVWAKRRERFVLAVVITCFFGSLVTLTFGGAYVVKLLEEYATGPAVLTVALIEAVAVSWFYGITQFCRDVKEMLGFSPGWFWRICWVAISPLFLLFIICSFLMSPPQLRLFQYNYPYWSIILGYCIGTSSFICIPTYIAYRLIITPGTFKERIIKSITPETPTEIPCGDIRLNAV
pKi: −log10 of the molar value. Counter-ions that a name gives are not always drawn.
# label = t if pKi >= 8 else f

Example cases with answers are listed next.
# MOLECULE, STUDY SYSTEM, LABEL
rows = [
    ("Cc1cccc2c1C(c1ccc3ccccc3c1)CN(C)C2 (stereo not shown)", "SERT (Homo sapiens, UniProt P31645)", "t"),
    ("COc1cccc2cc(C3CN(C)Cc4ccccc43)oc12 (single isomer, unassigned)", "SERT (Homo sapiens, UniProt P31645)", "f"),
    ("CN1Cc2ccccc2C(c2cccs2)C1 (racemic) [thiophen-2-yl, reference compound]", "SERT (Homo sapiens, UniProt P31645)", "f"),
    ("COc1c(C2CN(C)Cc3ccccc32)ccc2sccc12 (single isomer, unassigned)", "SERT (Homo sapiens, UniProt P31645)", "t"),
    ("Cc1noc(C)c1-c1ccc2c(c1)CN(C)CC2c1ccc2ccccc2c1 (racemic) [Example 142, maleate salt]", "SERT (Homo sapiens, UniProt P31645)", "t"),
]

Query string: Tell me whether pKi is at least 8 here: CCN1Cc2ccccc2C(c2ccc3cn[nH]c3c2)C1 (single isomer, unassigned; (+)) [Example 130, maleate salt]
Result string: f

Query string: Tell me whether pKi is at least 8 here: Cc1noc(C)c1C1CN(C)Cc2ccccc21 (racemic) [4-(3,5-dimethyl-isoxazol-4-yl, reference compound]
Result string: f

Query string: Tell me whether pKi is at least 8 here: CN1Cc2ccccc2C(c2cc(Cl)c3[nH]ncc3c2)C1 (single isomer, unassigned; (-)) [Example 125, maleate salt]
Result string: f

Query string: Tell me whether pKi is at least 8 here: Cc1csc(C2CN(C)Cc3ccccc32)c1 (racemic) [4-methyl-thiophen-2-yl, reference compound]
Result string: f
